The molecules listed here are annotated with their IC50.
Target: human NEP ectodomain (Homo sapiens, UniProt P08473)
Construct: A purified human NEP ectodomain was used in continuous activity assays; made in house
Sequence (P08473 52-750 limits assumed): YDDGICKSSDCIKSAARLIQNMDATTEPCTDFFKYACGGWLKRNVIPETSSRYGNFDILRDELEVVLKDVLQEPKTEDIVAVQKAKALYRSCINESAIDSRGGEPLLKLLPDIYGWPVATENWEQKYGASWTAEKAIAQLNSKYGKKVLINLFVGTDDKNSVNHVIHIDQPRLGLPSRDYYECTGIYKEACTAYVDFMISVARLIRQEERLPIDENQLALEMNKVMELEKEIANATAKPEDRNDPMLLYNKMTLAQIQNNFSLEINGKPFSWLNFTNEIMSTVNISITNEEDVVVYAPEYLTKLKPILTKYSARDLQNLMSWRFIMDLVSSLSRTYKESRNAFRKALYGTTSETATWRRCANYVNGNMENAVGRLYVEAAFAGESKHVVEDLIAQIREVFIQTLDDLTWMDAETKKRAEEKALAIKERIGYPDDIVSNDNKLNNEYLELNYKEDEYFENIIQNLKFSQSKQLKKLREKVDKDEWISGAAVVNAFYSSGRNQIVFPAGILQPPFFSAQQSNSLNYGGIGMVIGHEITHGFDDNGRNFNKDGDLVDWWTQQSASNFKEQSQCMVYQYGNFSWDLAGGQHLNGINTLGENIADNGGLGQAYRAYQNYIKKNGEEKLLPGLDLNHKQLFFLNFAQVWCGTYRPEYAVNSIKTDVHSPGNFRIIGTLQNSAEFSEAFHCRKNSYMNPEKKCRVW
Assay: NEP inhibition assay (continuous fluorogenic activity assay)
Format: biochemical
Conditions: 0.4 nM NEP, 5 μM MCA-RPPGFSAFK(Dnp)-OH substrate; mean ± standard error, n ≥ 2
reported endpoint: IC50 (µM)

[[record]]
molecule = "O=C(N[C@H]1CCS[C@H]2CCC[C@@H](C(=O)O)N2C1=O)[C@@H](S)Cc1ccccc1 [Omapatrilat, reference compound]"
recorded_measurement = 0.01

[[record]]
molecule = "Cc1ccc([C@H]2CC[C@@H](C(=O)O)N2C(=O)CNC(=O)[C@@H](S)Cc2ccccc2)cc1"
recorded_measurement = 0.009

[[record]]
molecule = "NCCCC[C@H](NC(=O)[C@@H](S)Cc1ccccc1)C(=O)N[C@@H](Cc1c[nH]c2ccccc12)C(=O)O"
recorded_measurement = 1.2

[[record]]
molecule = "O=C(NCC(=O)N1[C@@H](c2cccc(O)c2)CC[C@H]1C(=O)O)[C@@H](S)Cc1ccc(O)cc1"
recorded_measurement = 0.02


----------
Biological target: cACE (Homo sapiens, UniProt P12821)
Construct: using purified recombinant single domain human ACE proteins and the human NEP ectodomain as previously described
Sequence (P12821 643-1222 limits assumed): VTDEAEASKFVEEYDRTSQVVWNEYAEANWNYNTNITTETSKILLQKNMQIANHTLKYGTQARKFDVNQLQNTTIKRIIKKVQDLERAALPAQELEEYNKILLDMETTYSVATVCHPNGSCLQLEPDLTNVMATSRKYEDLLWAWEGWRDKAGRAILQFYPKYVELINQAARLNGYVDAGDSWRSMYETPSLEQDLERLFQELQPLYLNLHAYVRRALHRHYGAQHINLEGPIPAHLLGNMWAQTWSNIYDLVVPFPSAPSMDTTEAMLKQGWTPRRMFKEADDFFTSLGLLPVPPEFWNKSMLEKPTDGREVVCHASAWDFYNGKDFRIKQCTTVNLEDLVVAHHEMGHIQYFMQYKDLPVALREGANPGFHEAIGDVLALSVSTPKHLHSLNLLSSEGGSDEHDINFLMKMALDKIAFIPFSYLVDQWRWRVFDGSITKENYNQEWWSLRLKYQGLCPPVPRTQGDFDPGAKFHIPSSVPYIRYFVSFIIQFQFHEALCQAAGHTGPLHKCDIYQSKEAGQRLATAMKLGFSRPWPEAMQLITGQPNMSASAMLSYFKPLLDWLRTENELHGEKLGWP
Assay: ACE inhibition assay, cACE (fluorogenic end point, Z-FHL)
Conditions: ~1 nM cACE, 0.5 mM Z-FHL; mean ± standard error, n ≥ 2
pIC50: −log10 of the molar value.
The molecules listed here are annotated with their pIC50.
reported endpoint: pIC50

[[record]]
molecule = "Cc1ccc([C@H]2CC[C@@H](C(=O)O)N2C(=O)CNC(=O)[C@@H](S)Cc2ccccc2)cc1"
measured_target = "cACE (Homo sapiens, UniProt P12821)"
recorded_measurement = 9.10

[[record]]
molecule = "O=C(N[C@H]1CCS[C@H]2CCC[C@@H](C(=O)O)N2C1=O)[C@@H](S)Cc1ccccc1 [Omapatrilat, reference compound]"
measured_target = "cACE (Homo sapiens, UniProt P12821)"
recorded_measurement = 9.00


----------
Target: nACE (Homo sapiens, UniProt P12821)
Construct: using purified recombinant single domain human ACE proteins and the human NEP ectodomain as previously described
Sequence (P12821 40-624 limits assumed): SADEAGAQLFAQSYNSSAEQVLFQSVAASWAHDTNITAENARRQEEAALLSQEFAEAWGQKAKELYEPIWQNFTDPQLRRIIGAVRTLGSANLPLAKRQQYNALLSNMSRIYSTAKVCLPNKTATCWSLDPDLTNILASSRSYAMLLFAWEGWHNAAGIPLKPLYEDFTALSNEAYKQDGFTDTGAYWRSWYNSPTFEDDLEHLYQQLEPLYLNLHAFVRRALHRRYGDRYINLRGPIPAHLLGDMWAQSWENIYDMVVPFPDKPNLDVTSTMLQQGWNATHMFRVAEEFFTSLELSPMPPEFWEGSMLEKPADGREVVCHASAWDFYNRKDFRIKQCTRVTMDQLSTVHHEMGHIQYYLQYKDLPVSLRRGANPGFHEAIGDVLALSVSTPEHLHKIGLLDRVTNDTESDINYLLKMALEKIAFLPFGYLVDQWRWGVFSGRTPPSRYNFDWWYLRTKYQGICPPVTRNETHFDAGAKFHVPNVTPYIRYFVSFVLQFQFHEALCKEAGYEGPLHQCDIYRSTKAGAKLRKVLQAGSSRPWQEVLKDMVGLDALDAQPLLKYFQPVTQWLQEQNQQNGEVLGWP
Assay: ACE inhibition assay, nACE (fluorogenic end point, Z-FHL)
Details: ~1 nM nACE, 0.5 mM Z-FHL; mean ± standard error, n ≥ 2
Excerpt: For an accurate comparison of the inhibitor potencies across different enzymes and substrates, it is preferable to determine inhibition constants (Ki values). […] In the case of these new analogues, it was more challenging to accurately determine Ki values that could reliably be used to determine selectivity. […] Given that accurate Ki values could not be calculated in a consistent manner for all compound-enzyme combinations, IC50 values are reported (Table 1). […]
The molecules listed here are annotated with their IC50.
reported endpoint: IC50

[[record]]
molecule = "O=C(N[C@H]1CCS[C@H]2CCC[C@@H](C(=O)O)N2C1=O)[C@@H](S)Cc1ccccc1 [Omapatrilat, reference compound]"
recorded_measurement = "2 nM"

[[record]]
molecule = "O=C(NCC(=O)N1[C@@H](c2cccc(O)c2)CC[C@H]1C(=O)O)[C@@H](S)Cc1ccc(O)cc1"
recorded_measurement = "20 nM"

[[record]]
molecule = "NCCCC[C@H](NC(=O)[C@@H](S)Cc1ccccc1)C(=O)N[C@@H](Cc1c[nH]c2ccccc12)C(=O)O"
recorded_measurement = "150 nM"

[[record]]
molecule = "Cc1ccc([C@H]2CC[C@@H](C(=O)O)N2C(=O)CNC(=O)[C@@H](S)Cc2ccccc2)cc1"
recorded_measurement = "19 nM"


Just for reference, paper PMC11997989 is where these values come from.
